Exercise: for every item that follows, state its recorded growth.
# System: BT-549 breast
# Assay remarks: NCI-60 one-dose screen, 48 h (100 = growth as untreated, 0 = no growth, -100 = all killed)
# Recorded conditions: 10 µM unless noted
# Description: Growth inhibition of the BT-549 human tumor cell line is measured as a screen for anti-cancer activity. Cells are grown in 96 well plates and exposed to the test compound for 48 hours. Compounds are tested at a single concentration, which is 10^-5 M for most compounds. The reported endpoint is percent growth (GI% or GIPRCNT), where numbers from 0 - 100% represent growth inhibition, and numbers from -100% - 0 represent cell death. For example, a value of 40 represents 60% growth inhibition. […]
About 83,000 compounds went through this panel and 20% of them were active in at least one assay; those are over-represented in the sample as a whole. Calls of active or inactive are those of the source. How the source made its calls: active means growth percent below 10; inactive means the rest.

Example compounds with recorded growth:
COc1cc(/C=C/c2cn[nH]c2-c2ccc(C)cc2)cc(OC)c1OC 32.9% (inactive)
C=C[C@@]1(C)CC(=O)[C@@H](C(C)(C)c2cn(C)c3ccc(Br)cc23)C[C@@H]1O[Si](C)(C)C(C)(C)C 111% (inactive)
c1ccc(Nc2nc3c(s2)CCc2c[nH]cc2-3)nc1 95.4% (inactive)

Please examine the following record next.
Challenge: Give a short answer stating reported growth for CC(C)CCC[C@@H](C)[C@H]1CC[C@H]2[C@@H]3CC=C4c5sc(Nc6cc(C(F)(F)F)cc(C(F)(F)F)c6)nc5CC[C@]4(C)[C@H]3CC[C@]12C .
Response given: 98.9% (inactive)

* * *

# Test system: BT-549 breast
# Assay remarks: NCI-60 one-dose screen, 48 h
# Recorded conditions: 10 µM unless noted
Compounds without any hit were thinned out: in the full panel of roughly 83,000, 20% have a hit. Active and inactive are the calls of the source. The calls were made as follows: active = growth percent below 10; inactive = the rest.
Answer with one of the outcomes given here: yes = active, no = inactive

// known answers, use as guide
Compound	Qualitative label
O=C(NCCCCCCNC(=O)OCc1ccc2c(Cl)cc(Cl)c(O)c2n1)OCc1ccc2c(Cl)cc(Cl)c(O)c2n1	yes
COc1ccc(NC(=O)c2ccc(Nc3ncnc4c3cnn4-c3cccc(F)c3)cc2)cc1	no
C[N+]1=C(/C=C/c2ccccc2Cl)C(C)(C)c2ccccc21	no
CCN1CCN(CCNc2nccc(-c3c(-c4ccc(F)c(O)c4)nc4occn34)n2)S1(=O)=O	no
O=C(NNc1nc2cc(F)ccc2n2c(CN3CCOCC3)ccc12)c1ccccc1	no
CCCCCCCCCCCCCCCCCCOc1ccccc1CC(=O)NCC[N+](C)(C)C	no

Challenge: // param item: Nc1ccc(Br)cc1C(F)(F)F ; yields the recorded call
Response given: no

Challenge: Hi team, can someone confirm the assay call for Cc1cc(O)c(=O)cc2c1C[C@H]1CC(C)(C)/C=C/C[C@]3(C)Oc4cc(=O)c(O)cc(C)c4C[C@H]3C[C@H](O)[C@@]1(C)O2 ?
Response given: yes

Challenge: Please indicate how the test categorized COc1cc(/C=C/C(=O)c2cccc(-n3cc(-c4ccc(Cl)cc4)[nH]c3=O)c2)ccc1O .
Response given: no

Challenge: For CCOC(=O)NCCCC(=O)NCCc1ccccc1 , what call appears in the results of this test?
Response given: no

Challenge: What classification did CCOC(=O)C/C(=N\Nc1cc(=O)[nH]c2ccc(C)cc12)C(=O)OCC end up with in this test?
Response given: no

Challenge: Record lookup: outcome of this test for CCCCCc1ccc(S(=O)(=O)Nc2cc(-c3csc(NC(C)=O)n3)ccc2N2CCN(C)CC2)cc1 ?
Response given: no

Challenge: Each compound tested received a call. Report the one for CS(=O)/C(C#N)=C\C=C\c1cccc(Cl)c1 (configuration not stated) .
Response given: yes

Challenge: Write down the call the test reported for this compound. Item: C/C=C1/CN(CCCCC)CC[C@H]1C(=O)c1cc2ccccc2[nH]1
Response given: no

* * *

# System: NCI-H23 lung
# Assay remarks: NCI-60 one-dose screen, 48 h (100 = growth as untreated, 0 = no growth, -100 = all killed)
# Recorded conditions: 10 µM unless noted
# Procedure: Growth inhibition of the NCI-H23 human Non-Small Cell Lung tumor cell line is measured as a screen for anti-cancer activity. Cells are grown in 96 well plates and exposed to the test compound for 48 hours. Compounds are tested at a single concentration, which is 10^-5 M for most compounds. The reported endpoint is percent growth (GI% or GIPRCNT), where numbers from 0 - 100% represent growth inhibition, and numbers from -100% - 0 represent cell death. […]
About 83,000 compounds went through this panel and 20% of them were active in at least one assay; those are over-represented in the sample as a whole.
Measured parameter: growth (%)
One number for each entry, in %.

Compound	Tested on	growth [%]
CCOC(=O)CC1CSC(N/N=C/c2ccc(F)c(Br)c2)=N1 (centres undefined)	NCI-H23 lung	99.8
O=c1cc(CNc2cc(F)cc(F)c2)c2ccc(I)cc2[nH]1	NCI-H23 lung	46.3
O=S(=O)(N=C1C(Cl)=C(Cl)C(=NS(=O)(=O)c2ccccc2)C(Cl)=C1Cl)c1ccccc1	NCI-H23 lung	73.3
CC1(C)CC[C@]2(CO)CC[C@]3(C)[C@](O)([C@H](O)C[C@@H]4[C@@]5(C)CCCNC(C)(C)[C@@H]5CC[C@]43C)[C@@H]2C1	NCI-H23 lung	95
Cc1ccc(NC(=O)c2cc3ccccc3cc2O)c(C)c1	NCI-H23 lung	71.9

Hello, I would appreciate it if you could give growth for each entry below.
1. Cn1cc(-c2nc3c(F)cc4[nH]ncc4c3c3c2CCCC3)c(C(F)(F)F)n1
2. COc1ccc(C2CC(n3ccnc3)c3cc(OC)c(OC)c(OC)c32)cc1O (centres undefined)
3. Cc1c(O)cc(-c2cnc(N/N=C/c3ccccc3)s2)c(O)c1C
4. CCN1CCN(CCNc2nccc(-c3c(-c4ccc(F)c(O)c4)nc4occn34)n2)S1(=O)=O

Response given:
1: 37.7; 2: 91.5; 3: 97.7; 4: 14

* * *

# System: LOX IMVI melanoma
# Assay remarks: NCI-60 one-dose screen, 48 h (100 = growth as untreated, 0 = no growth, -100 = all killed)
# Recorded conditions: 10 µM unless noted
Compounds without any hit were thinned out: in the full panel of roughly 83,000, 20% have a hit.
For each of the compounds below, state its growth.
Numbers only, in %.

Compound	growth, %
CCn1cc(C(=O)O)c(=O)c2cc(F)c(N3CCN(CC(=O)Nc4ccccc4)C(C)C3)c(F)c21 (stereo unspecified)	88.5
COc1cc(C[C@H]2COc3cc(O)cc(O)c3C2=O)ccc1O	38.6
COc1ccc2c(c1)c(-c1nc(-c3ccc4ccccc4c3)cs1)cn2C	86
COCCn1cc(-c2nc(-c3cn(CCOC)c4ncccc34)cs2)c2cc(F)ccc21	64.3
O=C(Nc1cccnc1Nc1ccccc1)c1cn(Cc2cccc(Oc3ccccc3)c2)nn1	37

// each listed compound needs a value for growth
1. CC(=O)c1sc(-c2ccc(F)cc2)cc1O
2. COc1ccc(C/C(C)=C(\c2ccc(Cl)cc2)c2ccc(OCCCN(C)C)cc2)cc1
3. CC1=C(Cl)C(=O)c2cc(C)ccc2C1=O

Response given:
1: 97.4; 2: 73.1; 3: 100

List growth for every entry below, keeping the order given.
1. c1ccc(Cn2cc3c(c2-c2ccccc2)CCc2cnoc2-3)cc1
2. COc1cc(OC)c2c(=O)c3c(CC=C(C)C)cc(OC)c(O)c3oc2c1
3. Nc1cc(Br)cc2c1[nH]c(=O)c1ccccc12

Response given:
[66.1, 82, 95.5]

* * *

# Tested on: CCRF-CEM leukemia
# Assay remarks: NCI-60 one-dose screen, 48 h (100 = growth as untreated, 0 = no growth, -100 = all killed)
# Recorded conditions: 10 µM unless noted
About 83,000 compounds went through this panel and 20% of them were active in at least one assay; those are over-represented in the sample as a whole.
Hi there, I'd appreciate the recorded growth for every entry that follows.
Give bare numbers, in %.

Worked cases, answers included:
Compound	Measured parameter	Reported measurement
CN(C)CCCn1c2c(c3ccncc3c1=O)C(=O)c1ccccc1-2	growth	1.34
O=C1/C(=C/c2c[nH]c(=O)[nH]c2=O)SC(=S)N1Cc1ccccc1	growth	104
Nc1cccc(-c2ccc(COc3ccc(CC4SC(=O)NC4=O)cc3)cc2)c1 (centres undefined)	growth	52.3
COC12C=C/C(=C(/C(=O)OCc3cncnc3)C(=O)CCCCCCCCC3(OC)C=C/C(=C(/C(=O)OCc4cncnc4)C(=O)CCCCCCCC1)O3)O2	growth	-18.2
Cc1ccc2c(c1)=C/C(=C\c1cc(-c3ccccc3)[nH]c1O)C(=O)N=2	growth	20

Working through the 3 compounds below one at a time, give growth for each.
1. COC(=O)/C=C1/SC(=Nc2ccc(F)cc2)N(CCc2c[nH]c3ccc(O)cc23)C1=O
2. CCN(CC)CCOc1ccc(/C(=C(\C)Cc2ccc(OC)cc2)c2ccc(OC(=O)NCc3ccccc3)cc2)cc1
3. Cc1cc(O)cc(-c2nn(C)cc2-c2cc(N3CCOCC3)nc(-c3cccnc3)n2)c1

Response given:
1. 3.69
2. 23.1
3. 24.3

Challenge: Specify measured growth for CN(C)c1ccc(CNCCO)cc1 .
Response given: 88.4
